molecular target: actin capping protein (CP), chicken α1/β1, CP_full (chicken, UniProt P13127 1-286; P14315 1-277); assay: SPR; GST-fusion protein (GST-V-1, GST-CA or GST-CD) immobilised on a CM5 chip via anti-GST antibodies (up to 200 RU), CP perfused at 20 µl/min; 20°C; 50 mM KCl, 1 mM MgCl2, 0.005% Tween-20, 10 mM imidazole pH 7.0; 1:1 fit, KD from the kinetic rate constants (steady state for several fast-dissociating mutants); conditions: both partners purified

>  <BINDER>
GST-CA92 (domain or fragment, CARMIL, mouse, residues 962–1053) FPSVRQEKRSSGLISELPSEEGRRLEHFTKLRPKRNKKQQPTQAAVCTISILPQDGEQNGLMGRVDEGVDEFFTKKVTKMDCKRSSSRSSDA

>  <RESULT_UNIT>
M⁻¹ s⁻¹

>  <kon>
1.6e+06

$$$$
>  <BINDER>
GST-CA76 (domain or fragment, CARMIL, mouse, residues 962–1037) FPSVRQEKRSSGLISELPSEEGRRLEHFTKLRPKRNKKQQPTQAAVCTISILPQDGEQNGLMGRVDEGVDEFFTKK

>  <RESULT_UNIT>
M⁻¹ s⁻¹

>  <kon>
230000

$$$$
>  <BINDER>
FDSLTVRTSKETDVVNFDDIASSENLLHLTANRPKMPGRRLPGRFNG (domain or fragment, CD2AP, human, residues 461–507; cloned into pGEX-6P-1) [GST-CD47]

>  <RESULT_UNIT>
M⁻¹ s⁻¹

>  <kon>
1.6e+06

$$$$
>  <BINDER>
FDSLTVRTSKETDVVNFDDIASSENLLHLTANRPKMPGRRLPGR (domain or fragment, CD2AP, human, residues 461–504; cloned into pGEX-6P-1) [GST-CD44]

>  <RESULT_UNIT>
M⁻¹ s⁻¹

>  <kon>
540000

$$$$

Origin of measurements: paper PMC2897767
